System: COR-L23
Experiment: Inhibition of ENT-mediated [3H]thymidine incorporation in human COR-L23 cells at 1 uM by liquid scintillation counting
Assay type: cell-based
Reported property: inhibition (%)
The reply should be a number in %, with the unit left off.

Observe how each entry below is paired with its result.
COC(=O)[C@@H](NC(=O)OC(C)CNc1nc(NCc2ccc(OC)c(OC)c2)c2nc(NCC(C)O)nc(NCc3ccc(OC)c(OC)c3)c2n1)C(C)C (some centres undefined)	95
CCOC(=O)[C@H](C)NC(=O)OC(C)CNc1nc(NCc2ccc(OC)c(OC)c2)c2nc(NCC(C)O)nc(NCc3ccc(OC)c(OC)c3)c2n1 (some centres undefined)	68
COc1ccc(NC(=O)OC(C)CNc2nc(NCc3ccc(OC)c(OC)c3)c3nc(NCC(C)O)nc(NCc4ccc(OC)c(OC)c4)c3n2)cc1 (centres undefined)	98

# input So what does the record say about inhibition for COc1ccc(CNc2nc(NCC(C)O)nc3c(NCc4ccc(OC)c(OC)c4)nc(NCC(C)O)nc23)cc1OC (centres undefined) ?
# output 90

# input Again, but for COc1ccc(CNc2nc(NCC(C)OC(=O)Nc3ccccc3)nc3c(NCc4ccc(OC)c(OC)c4)nc(NCC(O)CO)nc23)cc1OC (centres undefined)
# output 91

# input Again, but for COc1ccc(CNc2nc(NCC(C)OP(=O)(O)O)nc3c(NCc4ccc(OC)c(OC)c4)nc(NCC(C)OC(=O)Nc4ccccc4)nc23)cc1OC (centres undefined)
# output 75

# input Again, but for COc1ccc(CNc2nc(NCC(C)OC(=O)Nc3ccccc3)nc3c(NCc4ccc(OCCN5CCOCC5)c(OC)c4)nc(NCC(C)O)nc23)cc1OC (centres undefined)
# output 97

# input Again, but for COc1ccc(CNc2nc(NCC(C)OC(=O)[C@@H](N)C(C)C)nc3c(NCc4ccc(OC)c(OC)c4)nc(NCC(C)O)nc23)cc1OC.Cl (some centres undefined)
# output 89

# input Again, but for CCOC(=O)CNC(=O)OC(C)CNc1nc(NCc2ccc(OC)c(OC)c2)c2nc(NCC(C)O)nc(NCc3ccc(OC)c(OC)c3)c2n1 (centres undefined)
# output 94

# input Again, but for OCCN(CCO)c1nc(N2CCCCC2)c2nc(N(CCO)CCO)nc(N3CCCCC3)c2n1 [DIPYRIDAMOLE]
# output 96

Numbers sourced from ChEMBL document CHEMBL1764979.
